Each recorded value in this set is attributed to PubChem BioAssay (NCI).

Test system: NCI-H23 lung
Experiment: NCI tumour cell line growth inhibition, 48 h
# TGI per record follows
quantityName: TGI

CC(C)(C)OC(=O)NCC(=O)OCc1ccccc1    > 100 µM
CC(C)(Cc1ccccc1)NC1=NCCO1    > 100 µM
CC(O)C(N=Cc1ccccc1[O-])C(=O)[O-].CC(O)C(N=Cc1ccccc1[O-])C(=O)[O-].[Co+2] (centres undefined)    > 100 µM
O=C1CCCC/C(=C/c2ccccc2)N1    > 100 µM
O=Cc1ccc2c(c1)CC1(C2)Cc2ccc3c(c2C1)CCC3 (centres undefined)    33.6 µM
Cc1ccc(NC(=O)c2c(C)nc(=O)n3c2N(/N=C/c2ccc(Cl)cc2)CC3)cc1    29.2 µM
O=C(c1ccccc1)c1cc(Cl)ccc1OCCCCN1CCN(CCCCOc2ccc(Cl)cc2C(=O)c2ccccc2)CC1    18.3 µM
O=C1c2ccccc2C(=O)C1(Cl)C1(S(=O)(=O)O)c2ccccc2-c2ccccc21    > 100 µM
O=C1c2ccccc2C2(Br)C(=O)c3ccccc3C12 (centres undefined)    > 100 µM
CCC(C)(C)/C(CC(O)(C(F)(F)F)C(F)(F)F)=N\O    > 100 µM
CCc1nc(N)nc(N)c1-c1ccc(Cl)c(Cl)c1    > 100 µM
O=C1N=c2ccccc2=C1c1c(O)[nH]c2ccccc12    69.2 µM
CC1OC2CC(=O)OC2C2=C1C(=O)c1c(O)cccc1C2=O (centres undefined)    0.426 µM
COC(C)(C)C1=CCC(C)CC1 (centres undefined)    > 100 µM
CC(=O)Oc1cccc2c(/C=N/NC(N)=S)ncc(C)c12    13.4 µM
CC1(CCCO)CCCCCC(C)(CCCO)C1=O (centres undefined)    > 100 µM
CC1CC=CC(O)C1 (centres undefined)    > 100 µM
C=C(F)C(=O)N1CCN(c2nc(OC[C@@H]3CCCN3C)nc3c2CCN(c2cccc4cccc(Cl)c24)C3)C[C@@H]1CC#N    1.58 µM
COc1ccc(NC(=O)CCc2cc(-c3ccc(O)c(OC)c3)nc(NC#N)n2)cc1    > 100 µM

###

Entries and their measured TGI follow.
Tested on: A498 renal
Test: NCI tumour cell line growth inhibition, 48 h
quantityName: TGI

COc1ccc(N(C)c2ncnc3occ(C)c23)cc1    < 0.01 µM
CCOC(=O)C1(Cc2ccc3c(c2)CCC3)Cc2cc3c(cc2C1)CCC3    > 100 µM
CNC(=S)N(C)C(=S)Nn1c(=O)c(C)nn(C)c1=S    > 100 µM
CC1CC=CC(O)C1 (stereo not given)    > 100 µM
O=C1c2ccccc2C(=O)C1(Cl)C1(S(=O)(=O)O)c2ccccc2-c2ccccc21    > 100 µM

###

System: KM12 colon
Assay: NCI tumour cell line growth inhibition, 48 h
Known TGI of a selection of compounds
quantityName: TGI

O=C(CC(=O)Nc1cccc(C(=O)O)c1)Nc1cccc(C(=O)O)c1    > 100 µM
O=S1(=O)OCCOS(=O)(=O)C1F    > 100 µM
CS(=O)(=O)N/N=C/CN1C(=O)c2ccccc2C1=O    > 100 µM
Cc1cccc(-c2nc3ccc([N+](=O)[O-])cc3c(=O)o2)c1    > 100 µM
O=C(Nc1nc2ncn(CCI)c2c(=O)[nH]1)c1ccccc1    > 100 µM
CC(=O)n1nc(-c2ccccc2)n(/N=C/c2ccc([N+](=O)[O-])cc2)c1=O    > 100 µM

###

Tested on: MDA-MB-231 breast
Experiment: NCI tumour cell line growth inhibition, 48 h
quantityName: TGI

CCOc1nc(-c2ccccc2)cc2c(O)c(-c3nnco3)[nH]c(=O)c12    > 29.8 µM
CCC1(CC)SCc2nc3ccccc3n21    90.5 µM
Cc1ccc(C(SCC(N)C(=O)O)(c2ccccc2)c2ccc(C)cc2)cc1 (stereo unspecified)    16.1 µM
COc1ccc(C(C)NNC(=O)c2ccncc2)c(OC)c1 (stereo unspecified)    > 100 µM
COc1cc(Nc2cn[nH]c2-c2ccc(Cl)cc2)cc(OC)c1OC    > 90.3 µM
O=C1N=c2ccccc2=C1c1c(O)[nH]c2ccccc12    > 100 µM
CC1=C(C#N)C(C#N)(C#N)C(NN(C)C)C1 (stereo unspecified)    28.4 µM
COCCOc1cc(F)c2c(Nc3ccc(NC(=O)Cn4cc(C(C)C)nn4)cc3)ncnc2c1    > 100 µM
COc1ccc(C(=O)Sc2c(-c3ccccc3)c(=O)n(-c3ccccc3)c(=S)n2-c2ccccc2)cc1    > 100 µM
CCC(C)(C)/C(CC(O)(C(F)(F)F)C(F)(F)F)=N\O    > 100 µM
CN1C(=O)N/C(=C\c2ccc(S(=O)(=O)NN)cc2)C1=O    > 100 µM

###

System: UO-31 renal
Test: NCI tumour cell line growth inhibition, 48 h
The following compounds are listed with their measured TGI values.
quantityName: TGI

Cc1cccc(-c2nc3ccc([N+](=O)[O-])cc3c(=O)o2)c1    > 100 µM
COc1ccc2c(c1)CCC1C2CC[C@@]2(C)C1CC1=CC(COC(C)=O)C3C(=O)c4ccccc4C(=O)C3C12 (stereo not given in full)    > 100 µM
CCOc1nc(-c2ccccc2)cc2c(O)c(-c3nnco3)[nH]c(=O)c12    > 100 µM
O=C(NCCCCCCNC(=O)c1cccc2ccccc12)Nc1cccc2ccccc12    > 100 µM
Cc1nc(N)sc1-c1ccnc(Nc2ccc(N3CCOCC3)cc2)n1    > 51.1 µM

###

The reader will find GI50 measurements below, all made with MDA-MB-435.
quantityName: GI50

O=C(c1ccccc1)c1cc(Cl)ccc1OCCCCN1CCN(CCCCOc2ccc(Cl)cc2C(=O)c2ccccc2)CC1    3.65 µM
C=C(F)C(=O)N1CCN(c2nc(OC[C@@H]3CCCN3C)nc3c2CCN(c2cccc4cccc(Cl)c24)C3)C[C@@H]1CC#N    0.961 µM
Cc1c2cccnc2c(C)c2c1c1cc(CO)ccc1n2C    3.06 µM
C=CC1CC12C(=O)C1OC2(C)C2C(=O)c3cc4ccccc4cc3C(=O)C12 (centres undefined)    26.3 µM

###

Tested on: SF-268 CNS
Assay: NCI tumour cell line growth inhibition, 48 h; in the data active = GI50 below about 0.43 µM; inactive = the rest
Outcome codes: active, inactive

CC(C)(C)C(=O)OCOP(=O)(OCOC(=O)C(C)(C)C)C1CCCN(O)C1=O (stereo not drawn)    inactive
CCOC(=O)/C=C/C(C(=O)/C=C/c1ccc(OC2CCCCO2)c(OC)c1)=C(O)\C=C\c1ccc(OC2CCCCO2)c(OC)c1 (stereo not drawn)    inactive
COc1cc(C(=O)c2cc(C)c3[nH]c4ccc(Cl)cc4c3c2C)cc(OC)c1OC    active
Cc1ccc(C(SCC(N)C(=O)O)(c2ccccc2)c2ccc(C)cc2)cc1 (stereo not drawn)    active
C[As](C)SC1OC(CO)C(O)C1O (stereo not drawn)    inactive
CC(O)C(N=Cc1ccccc1[O-])C(=O)[O-].CC(O)C(N=Cc1ccccc1[O-])C(=O)[O-].[Co+2] (stereo not drawn)    inactive
O=C(OCc1ccc2cccc(O)c2n1)N1CCN(C(=O)c2cc3cc(F)ccc3[nH]2)CC1    inactive
CC/C(=C(/c1ccc(OCCN(C)C)cc1)c1ccc(OC(=O)CCCCC(=O)c2c(C)[nH]c(/C=C3\N=C(c4ccc[nH]4)C=C3OC)c2C)cc1)c1ccccc1    inactive
O=C(Nc1ccc(OS(=O)(=O)c2ccccc2)cc1)C12CC3CC(CC(C3)C1)C2    inactive
COc1ccc2c(c1)C(C)Cc1c(Cl)ncnc1N2C (stereo not drawn)    active
C[C@H]1c2cccc(O)c2C(O)=C2C(=O)[C@]3(O)C(O)=C(C(N)=O)C(=O)[C@@H](N(C)C)[C@@H]3[C@@H](O)[C@@H]21    inactive
Clc1coc2nc3ccccc3c(Nc3ccc4c(c3)OCO4)c12    inactive
Clc1ccc2c(NCCCNc3nccc(Nc4ccc(Br)cc4)n3)ccnc2c1    inactive

###

log10(TGI) listing for selected compounds.
Test system: SN12C renal
Test: NCI tumour cell line growth inhibition, 48 h
quantityName: log10(TGI) (log10 of the value in µM)

COc1cc(C(=O)c2cc(C)c3[nH]c4ccc(Cl)cc4c3c2C)cc(OC)c1OC    1.12
CC(=O)OCc1cc(CCC(=O)NCCNc2c3ccccc3nc3ccccc23)cc(COC(C)=O)c1O[Si](C)(C)C(C)(C)C    0.53
COC(=O)Cc1cc(O)c(C/C=C(\C)CC/C=C(\C)C(O)C(=O)C=C(C)C)cc1O (configuration not stated)    1.76
COC(=O)C1=C(c2ccc3c(c2)OCO3)O[C@H](c2cc(OC)c(OC)c(OC)c2)[C@H]1COC(C)=O    1.58
CCN(CC)c1c(N(CC)CC)c(=O)c1=O    1.38
C/C(=C\CCc1ccoc1)CC/C=C(\C)CCCC1=CC(=O)OC1    1.60
O=C1N=c2ccccc2=C1c1c(O)[nH]c2ccccc12    1.71
C=C1CC(c2ccc(OCCCN3C(=O)c4ccccc4C3=O)c(OC)c2)OC1=O (configuration not stated)    1.40
O=[N+]([O-])c1ccc(/C=N/n2c(CO)nc3ccccc32)o1    1.26
